Attribution: patent US20240008524A1

So I've got a bunch of compounds here, and I need their Flavoring Agent water solubility values.
- assayNotes: Water solubility of flavoring agents and their flavor glucosides
- conditionContext: free flavoring agent, not bound to sugar; water
Numbers only, in mg/mL.

>>> measuredresult("COc1cc(CO)ccc1O")
2
>>> measuredresult("CC1=C(O)C(=O)OC1C (centres unmarked)")
22.28

State recorded Flavoring Agent water solubility for all listed compounds.
1. CCc1occc(=O)c1O
2. OCCc1ccccc1
3. Oc1ccc2c(c1)OCO2
4. CCC1OC(C)=C(O)C1=O (centres unmarked)
5. CCC1OC(=O)C(O)=C1C (centres unmarked)
6. CC1(C)C2CC=C(CO)C1C2 (centres unmarked)

[24.23, 21.99, 14.65, 6.178, 74.39, 0.261]

---

- assayNotes: Water solubility of flavoring agents and their flavor glucosides
- conditionContext: flavoring agent in the form of its flavor glucoside; water
parameterMeasured: Glucoside water solubility
Value and unit, in that order.

>>> measuredresult("CC12CCC(C1)C(C)(C)C2O[C@@H]1O[C@H](CO)[C@@H](O)[C@H](O)[C@H]1O (stereo partly shown) [Fenchol glucoside]")
"4 mg/mL"

State recorded Glucoside water solubility for all listed compounds.
1. CCC1OC(=O)C(O[C@@H]2O[C@H](CO)[C@@H](O)[C@H](O)[C@H]2O)=C1C (stereo partly shown) [Maple furanone glucoside]
2. Cc1occc(=O)c1O[C@@H]1O[C@H](CO)[C@@H](O)[C@H](O)[C@H]1O [Maltol glucoside]
3. CC(C)=CCCC(C)CCO[C@@H]1O[C@H](CO)[C@@H](O)[C@H](O)[C@H]1O (stereo partly shown) [Citronellol glucoside]
4. CCc1occc(=O)c1O[C@@H]1O[C@H](CO)[C@@H](O)[C@H](O)[C@H]1O [Ethylmaltol glucoside]
5. CC(C)=CCC/C(C)=C\CO[C@@H]1O[C@H](CO)[C@@H](O)[C@H](O)[C@H]1O [Nerol glucoside]

1: 772 mg/mL; 2: 535 mg/mL; 3: 519 mg/mL; 4: 662 mg/mL; 5: 16.6 mg/mL

// returns reported Glucoside water solubility for input C=CC(C)(CCC=C(C)C)O[C@@H]1O[C@H](CO)[C@@H](O)[C@H](O)[C@H]1O (stereo partly shown) [Linalool glucoside]
564 mg/mL

---

- assayNotes: Water solubility of flavoring agents and their flavor glucosides
- conditionContext: flavoring agent in the form of its flavor glucoside; water
So I've got a bunch of compounds here, and I need their Glucoside water solubility values.
Answers are plain numbers, in mg/mL.

>>> measuredresult("COc1cc(CO)ccc1O[C@@H]1O[C@H](CO)[C@@H](O)[C@H](O)[C@H]1O [Vanillin-Alcohol glucoside]")
62

State recorded Glucoside water solubility for all listed compounds.
1. COC(=O)c1ccccc1N[C@@H]1O[C@H](CO)[C@@H](O)[C@H](O)[C@H]1O [Methylanthranilate glucoside]
2. C=CCc1ccc(O[C@@H]2O[C@H](CO)[C@@H](O)[C@H](O)[C@H]2O)c(OC)c1 [Eugenol glucoside]
3. CC1=C(O[C@@H]2O[C@H](CO)[C@@H](O)[C@H](O)[C@H]2O)C(=O)OC1C (stereo partly drawn) [Sotolon glucoside]

35
15.1
502

State recorded Glucoside water solubility for all listed compounds.
1. OC[C@H]1O[C@@H](OCCc2ccccc2)[C@H](O)[C@@H](O)[C@@H]1O [2-Phenylethanol glucoside, 2-phenyleth-1-yl-O-β-D-glucopyranoside]
2. CC/C=C\CCO[C@@H]1O[C@H](CO)[C@@H](O)[C@H](O)[C@H]1O [cis-3-Hexen-1-ol glucoside, (3Z)-3-hexen-1-yl-O-β-D-glucopyranoside]

833
598
